# tgt: COMT (Homo sapiens, UniProt P21964)
# Construct: COMT activity was evaluated in cell monolayers by the ability to methylate adrenaline; host or cells: SK-N-SH cells
# Sequence (P21964 whole entry): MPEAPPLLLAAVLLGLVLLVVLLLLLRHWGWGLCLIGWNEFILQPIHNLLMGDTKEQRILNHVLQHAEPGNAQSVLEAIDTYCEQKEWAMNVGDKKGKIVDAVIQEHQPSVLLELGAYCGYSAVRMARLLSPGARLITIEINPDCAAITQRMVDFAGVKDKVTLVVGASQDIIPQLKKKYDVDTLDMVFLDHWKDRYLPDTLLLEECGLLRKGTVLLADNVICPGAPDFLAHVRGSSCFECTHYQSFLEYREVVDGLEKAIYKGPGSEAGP
# protocol notes: COMT activity in intact SK-N-SH cell monolayers
# Assay type: cell-based
# condition context: SK-N-SH cells; test compound 100 nM; means±SEM, n=4-8
observation type: COMT activity, SK-N-SH (% of control)

Checklist item: COMT activity, SK-N-SH (% of control) tested on COMT (Homo sapiens, UniProt P21964), entry "CCCN1CCN(CCC(=O)c2ccc(O)c(O)c2[N+](=O)[O-])CC1" , value?
11 ± 0 % of control

Another: "O=C1C(=Cc2ccc(O)c(O)c2)CCc2cc(O)c(O)c([N+](=O)[O-])c21"
46 ± 1 % of control

Another: O=C(CCN1CCCC2CCCCC21)c1ccc(O)c(O)c1[N+](=O)[O-] (centres unmarked)
11 ± 2 % of control

Another: O=C1c2c(cc(O)c(O)c2[N+](=O)[O-])CC1CN1CCCCC1 (centres unmarked)
17 ± 1 % of control

Another: "CC(=O)Oc1ccc(C(=O)CCCc2ccccc2)c([N+](=O)[O-])c1OC(C)=O"
1 ± 0 % of control

Another: "CCOC(=O)Oc1ccc(C(=O)CCc2ccccc2)c([N+](=O)[O-])c1OC(=O)OCC"
12 ± 1 % of control

Another: "CCOC(=O)Oc1ccc(C(=O)c2ccccc2)c([N+](=O)[O-])c1OC(=O)OCC"
1 ± 1 % of control

Another: O=C1c2c(cc(O)c(O)c2[N+](=O)[O-])CC1CN1CCN(c2cccc(C(F)(F)F)c2)CC1 (centres unmarked)
19 ± 7 % of control
